Data origin, for the record: patent US20120252801A1

Test system: C. glabrata
Test: Minimal fungicidal concentration (MFC) against C. glabrata
Type: cell-based, Candida glabrata
Settings: Nakaseomyces glabratus; 24 h at 37° C. in PBS; less than 1% survival relative to DMSO control

# compound, unitsLabel, MFC
data = [
    ("CCN1CC(C)(C)OC(=O)C1CC(=O)Nc1ccc2c(ccn2C)c1 (stereo not drawn)", "µg/mL", 50),
    ("CCN1CC(C)(C)OC(=O)C1CC(=O)NCc1cccc(Cl)c1 (stereo not drawn)", "µg/mL", 6.25),
    ("CCN1CC(C)(C)OC(=O)C1CC(=O)NCc1ccc(Cl)c(Cl)c1 (stereo not drawn)", "µg/mL", 3.12),
    ("CCN1C[C@H](c2ccccc2)OC(=O)C1CC(=O)Nc1ccc(C(C)C)cc1 (stereo partly drawn)", "µg/mL", 12.5),
    ("CCN1CC(C)(C)OC(=O)C1CC(=O)NCc1cccs1 (stereo not drawn)", "µg/mL", 50),
    ("CCN1CC(C)(C)OC(=O)C1CC(=O)NC1CCc2ccccc21 (stereo not drawn)", "µg/mL", 50),
    ("CCN1CC(C)(C)OC(=O)C1CC(=O)NCC1CCCCC1 (stereo not drawn)", "µg/mL", 6.25),
    ("CCN1CC(C)(C)OC(=O)C1CC(=O)NCc1cccc(OC)c1 (stereo not drawn)", "µg/mL", 12.5),
    ("CCN1CC(C)(C)OC(=O)C1CC(=O)NCc1cccc(-c2ccccc2)c1 (stereo not drawn)", "µg/mL", 12.5),
]

###

MFC values for the molecules below.
Tested on: C. albicans SC5314
Assay: Minimal fungicidal concentration (MFC) against C. albicans
Assay type: cell-based
Conditions: Candida albicans, 24 h at 37° C. in PBS, less than 1% survival relative to DMSO control
Description: Two-fold dilution series of the compounds were prepared in 50% DMSO. 5 μl of these series were added to 95 μl PBS buffer inoculated with 1/500 cells of an overnight culture of either C. albicans, C. glabrata or C. krusei (final DMSO conc 2%). 2% DMSO served as negative control. After 24 h incubation at 37° C. of these cultures with the antifungal compounds in PBS, the cell cultures were plated on YPD agar and colony forming units (CFUs) were determined after incubation of the plates for 2 days. […]

# molecule, qual, MFC (µg/mL)
records = [
    ("CCN1C[C@H](C)OC(=O)C1CC(=O)Nc1ccc(C(C)C)cc1 (stereo partly shown)", "=", 12.5),
    ("CCN1CC(C)(C)OC(=O)C1CC(=O)NCc1ccc(-c2ccccc2)cc1 (stereo not shown)", "=", 25),
    ("CCN1CC(C)(C)OC(=O)C1CC(=O)NCc1ccc(Cl)c(Cl)c1 (stereo not shown)", "=", 12.5),
    ("CCN1CC(C)(C)OC(=O)C1CC(=O)NCc1cccc(Cl)c1 (stereo not shown)", "=", 6.25),
    ("CCN1CC(C)(C)OC(=O)C1CC(=O)NCc1ccccc1C(F)(F)F (stereo not shown)", "=", 25),
    ("CCN1CC(C)(C)OC(=O)C1CC(=O)NCC1CCCCC1 (stereo not shown)", "=", 25),
    ("CCN1CC(C)(C)OC(=O)C1CC(=O)NCc1ccco1 (stereo not shown)", "=", 50),
    ("CCN1CC(C)(C)OC(=O)C1CC(=O)Nc1ccc2scnc2c1 (stereo not shown)", ">", 50),
    ("CCN1CC(c2ccccc2)OC(=O)C1CC(=O)Nc1ccc(C(C)C)cc1 (stereo not shown)", "=", 12.5),
    ("CCCNC(=O)CC1C(=O)OC(C)(C)CN1CC (stereo not shown)", "=", 25),
]

###

System: C. albicans SC5314
Experiment: Minimal fungicidal concentration (MFC) against C. albicans
Format: cell-based
Conditions: Candida albicans, 24 h at 37° C. in PBS, less than 1% survival relative to DMSO control

# compound, subjectOfTest, qual, MFC / µg/mL
records = [
    ("CCN1CC(C)(C)OC(=O)C1CC(=O)Nc1ccc(C(C)C)cc1 (stereo not drawn) [CPD-06]", "C. albicans SC5314", "=", 12.5),
    ("CCN1CC(C)(C)OC(=O)C1CC(=O)NCc1ccccc1C (stereo not drawn) [CPD-69]", "C. albicans SC5314", "=", 25),
    ("CC(C)c1ccc(NC(=O)CC2C(=O)OC(C)(C)CN2S(C)(=O)=O)cc1 (stereo not drawn) [CPD-75]", "C. albicans SC5314", ">", 25),
    ("CCN1CC(C)(C)OC(=O)C1CC(=O)NCc1ccccc1OC (stereo not drawn) [CPD-79]", "C. albicans SC5314", ">", 25),
    ("CCN1C[C@@H](c2ccccc2)OC(=O)C1CC(=O)Nc1ccc(C(C)C)cc1 (stereo partly drawn) [CPD-04]", "C. albicans SC5314", "=", 12.5),
    ("CCN1CC(C)(C)OC(=O)C1CC(=O)NCc1ccccc1Cl (stereo not drawn) [CPD-57]", "C. albicans SC5314", "=", 25),
    ("CCN1CC(C)(C)OC(=O)C1CC(=O)NCCC(C)(C)C (stereo not drawn) [CPD-38]", "C. albicans SC5314", "=", 25),
    ("CCN1CC(C)(C)OC(=O)C1CC(=O)NC1CCN(Cc2ccccc2)CC1 (stereo not drawn) [CPD-14]", "C. albicans SC5314", "=", 25),
    ("CCN1C[C@@H](C)OC(=O)C1CC(=O)Nc1ccc(C(C)C)cc1 (stereo partly drawn) [CPD-05]", "C. albicans SC5314", "=", 12.5),
    ("CCN1CC(C)(C)OC(=O)C1CC(=O)NCc1cccc(C(F)(F)F)c1 (stereo not drawn) [CPD-78]", "C. albicans SC5314", "=", 25),
    ("CCN1CC(C)(C)OC(=O)C1CC(=O)NCc1ccc(C(F)(F)F)cc1 (stereo not drawn) [CPD-71]", "C. albicans SC5314", "=", 25),
    ("CCN1CC(C)(C)OC(=O)C1CC(=O)NCc1cccc(C)c1 (stereo not drawn) [CPD-70]", "C. albicans SC5314", "=", 25),
    ("CCN1CC(C)(C)OC(=O)C1CC(=O)NCc1ccc(OC)cc1 (stereo not drawn) [CPD-72]", "C. albicans SC5314", "=", 25),
    ("CCN1CC(C)(C)OC(=O)C1CC(=O)NCc1cccs1 (stereo not drawn) [CPD-22]", "C. albicans SC5314", "=", 25),
    ("CCN1CC(C)(C)OC(=O)C1CC(=O)NCc1c(Cl)cccc1Cl (stereo not drawn) [CPD-51]", "C. albicans SC5314", "=", 12.5),
    ("CCN1CC(C)(C)OC(=O)C1CC(=O)NCC(F)(F)F (stereo not drawn) [CPD-39]", "C. albicans SC5314", "=", 50),
    ("CCN1CC(C)(C)OC(=O)C1CC(=O)Nc1ccc2c(ccn2C)c1 (stereo not drawn) [CPD-07]", "C. albicans SC5314", "=", 12.5),
    ("CCN1CC(C)(C)OC(=O)C1CC(=O)NCCc1ccccc1 (stereo not drawn) [CPD-18]", "C. albicans SC5314", "=", 25),
    ("CCN1CC(C)(C)OC(=O)C1CC(=O)NCc1cccc(-c2ccccc2)c1 (stereo not drawn) [CPD-82]", "C. albicans SC5314", "=", 12.5),
    ("CCN1CC(C)(C)OC(=O)C1CC(=O)NCc1ccc(C)cc1 (stereo not drawn) [CPD-76]", "C. albicans SC5314", "=", 25),
    ("CCN1CC(C)(C)OC(=O)C1CC(=O)NCc1ccc(Cl)cc1 (stereo not drawn) [CPD-08]", "C. albicans SC5314", "=", 12.5),
]

###

Tested on: C. glabrata
Assay: Minimal fungicidal concentration (MFC) against C. glabrata
Type: cell-based, Candida glabrata
Settings: Nakaseomyces glabratus; 24 h at 37° C. in PBS; less than 1% survival relative to DMSO control

# compound, MFC
rows = [
    ("CC(C)c1ccc(NC(=O)CC2C(=O)OC(C)(C)CN2S(C)(=O)=O)cc1 (stereo not drawn)", "> 25 µg/mL"),
    ("CCN1CC(C)(C)OC(=O)C1CC(=O)NCc1c(Cl)cccc1Cl (stereo not drawn)", "25 µg/mL"),
    ("CCN1CC(C)(C)OC(=O)C1CC(=O)NCc1cccc(C(F)(F)F)c1 (stereo not drawn)", "12.5 µg/mL"),
    ("CCN1CC(c2ccccc2)OC(=O)C1CC(=O)Nc1ccc(C(C)C)cc1 (stereo not drawn)", "12.5 µg/mL"),
    ("CCN1CC(C)(C)OC(=O)C1CC(=O)NCC(F)(F)F (stereo not drawn)", "> 50 µg/mL"),
    ("CCN1CC(C)(C)OC(=O)C1CC(=O)NCCc1ccccc1 (stereo not drawn)", "50 µg/mL"),
    ("CCN1CC(C)(C)OC(=O)C1CC(=O)NCCC(C)(C)C (stereo not drawn)", "12.5 µg/mL"),
    ("CCN1CC(C)(C)OC(=O)C1CC(=O)Nc1ccc(C(C)C)cc1 (stereo not drawn)", "25 µg/mL"),
    ("CCN1CC(C)(C)OC(=O)C1CC(=O)NCc1ccccc1-c1ccccc1 (stereo not drawn)", "12.5 µg/mL"),
    ("CCN1CC(C)(C)OC(=O)C1CC(=O)NC1CCN(Cc2ccccc2)CC1 (stereo not drawn)", "> 50 µg/mL"),
    ("CCN1CC(C)(C)OC(=O)C1CC(=O)NCc1ccccc1OC (stereo not drawn)", "25 µg/mL"),
    ("CCN1CC(C)(C)OC(=O)C1CC(=O)NCc1ccc(Cl)cc1 (stereo not drawn)", "12.5 µg/mL"),
    ("CCN1CC(C)(C)OC(=O)C1CC(=O)Nc1ccc2scnc2c1 (stereo not drawn)", "> 50 µg/mL"),
    ("CCN1C[C@@H](C)OC(=O)C1CC(=O)Nc1ccc(C(C)C)cc1 (stereo partly drawn)", "6.25 µg/mL"),
    ("CCN1C[C@H](C)OC(=O)C1CC(=O)Nc1ccc(C(C)C)cc1 (stereo partly drawn)", "6.25 µg/mL"),
    ("CCN1CC(C)(C)OC(=O)C1CC(=O)NCc1ccccc1 (stereo not drawn)", "25 µg/mL"),
    ("CCN1C[C@@H](c2ccccc2)OC(=O)C1CC(=O)Nc1ccc(C(C)C)cc1 (stereo partly drawn)", "6.25 µg/mL"),
    ("CCN1CC(C)(C)OC(=O)C1CC(=O)NCc1ccccc1C(F)(F)F (stereo not drawn)", "12.5 µg/mL"),
    ("CCCNC(=O)CC1C(=O)OC(C)(C)CN1CC (stereo not drawn)", "> 50 µg/mL"),
    ("CCN1CC(C)(C)OC(=O)C1CC(=O)NCc1ccc(C)cc1 (stereo not drawn)", "6.25 µg/mL"),
    ("CCN1CC(C)(C)OC(=O)C1CC(=O)NCc1ccco1 (stereo not drawn)", "> 50 µg/mL"),
]
